assay: PET hydrolysis, aromatic products released after 48 h (umol product/mg enzyme); higher = more PET depolymerization activity; details: substrate: cryPow; 40 °C; pH 5.5
Could you please report measured PET hydrolysis for the items listed next?

Recorded PET hydrolysis for ATPDHAATADHASAHHHAAYPVSQQTIPATDGTGFGAATLYAPQGTGRKTLGAIVVAPGLKGDQSDLAWLAQDLAGEGFIVLNMDTLGKYDLPNQRSYEMLAAAKYLATASSVKDQVDPADIGVVGYSLGGGGALQAAVEQHGLKAAVALMPYDFPAGTTDPYKPTESPTYPGITTPTLVITGQADTTAPAASMGKPAYDSIPASTPKQYLELRGADHLAARATTNGTVRDAVTNFLKVYLDGNSAYRKYVCPAPPTSAAISESASSCPR [ESM174] , please? < 3

Thanks! And ADNPYQRGPNPTAASIAATTGPFAIASVSVARGNGFGGGVIYYPTDTSQGTFGAIAISPGLNGTWPGIAWLGPRLASQGFVVFGIETNNLNDSPTSRGTQLLAALDYLTQRSSVRTRVDATRLAVAGHSMGGGGALDAALRRPSLQAAIGNAPYLPSGNLSTDRVPTLIYAMQNDTLVPPSRLTTMYNTIPATTERGYIQITGAGHNYIGQPSTNLARTMIPWFKIFIDNDTRFSQFLCPLSNMSGISQYRNSCPLI [ESM159] ? 15.5

Thanks! And SNPAPDTGSGDGSSSQYQIGPDPTVSFLEASSGPFSVRTSNVSSLVSGFGGGTIHYPTGVNRPMAAIVVIPGFVSAESSIDWWGPKLASYGFVVMTIGTNSGFDQPPSRARQINNALDYLVAQNTNSRSPVNGMIDTNRLGAMGWSMGGGGTLRVAEEGRIKAAIPLAPWDTTSFRSNRTPTLIFACGSDSIAPVRTHASPFYNQIPTSTPKIFIEINRGNHYCANGGNSNNATLGRLGVAWMKRFLDEDRRYSQFLCGPRHTSDRNISESRDTCNF [ESM186] ? < 3

* * *

test: PET hydrolysis, aromatic products released after 48 h (umol product/mg enzyme); higher = more PET depolymerization activity; details: substrate: cryPow; 40 °C; pH 6.5
Respond with Condition met for PET hydrolysis values of 20 and above, Condition not met for values below.

State whether the measured PET hydrolysis reaches 20, counting equality as reaching it, for ASPYQRGPNPTAASIAATTGPFAIASITVPRGNGFGGGVIYYPTSTSQGTFGGIAISPGLNGTWSGISWLGPRLASQGFVVFGIETNNLNDSPTSRGTQLLAALDYLTQRSSVRSRLDANRLAVMGHSMGGGGALDAALRRPTLKATIGNAPHLPSGSLANDRVPTLIYAMQNDTLVTPARLTSLYNTIPAATERAYIEVTGAGHNYIGQPSTTLARTMIPWLKIFIDSDTRYAPFLCPLNDRSGIRQYRNSCPLI [ESM128] Condition met

Thanks! And DEIGQAPTSSNITGNGSFSVSTYNISSLVTGFGGGVAYYPSTAGRYPVVAVSPGFTARWSSISWIGPRLASWGFVVVGIETNSVYDQPASRGSQLLAALNWAVNSAPSAITSRADGSRRGVAGHSMGGGGTLEALAADTTGNVKAGVPLAPWNSDKTWNNVNEPVQIIGGESDTVAGVSSHSIPFYNSLGGSKSYVELNGASHFFPQTTNATTSRALVSWFKRWLNQDARFTPFTCGYGGTAVSDFRTNAC [ESM177] ? Condition not met

Thanks! And LTPSPTPPPTGGTGGCPADAICRGETPGSYSANGPYGSRSYTLSRIQTPGGATVYYPANAEPPFSGLVFTPPYTGSQFMYRAWGPFFASHGIVMVTMDTRTTLDSVDQRAAQQKQVLDALKAENTRSASPLRGKLDTSRLGAVGWSMGGGATWINSAEYSGLKTAMSLAGHNLSALDINARGSNTRVPTLIMNGALDATYLGGLGQSLGVYNNIPRGIPKVIYEVSSAGHFSWGSPTSAGRSVAQIALAFQKTFLDGDTRWATYIRRPSSGVATWRTANLP [ESM175] ? Condition not met

Thanks! And GESPGAAVVAFAGHAKGPAPTEQSVRAQQGPFTTDKLVVPAQAGRGFNKGTIYYPDDTSQGTFGAVAVIPGFLEGESAISWLGPTLASHGFITLTLAPNATTDYPEPRSNQLLAAVDWLANQSPVKDRVDPNRLAVAGHSMGGGGTLIAASKNPALKAAVPLTPWNPHSNFSDVTVPTLIIGADRDFIAPTFMHASPMYNSLKAKQDQAYLKLKNADHFATNRYNATATAYTVSWLKRYVDEDTRYSQFLCPVKSGFQLTCPI [DP011] ? Condition not met

Thanks! And MAENPYERGPAPTTSSIEASRGSFATSTVTVSRLAVSGFGGGTIYYPTSTTAGTFGAISIAPGFTALQSSIAWLGPRLASQGFVVFTIDTLTTSDQPDSRGRQLLAALDYLTQQSSVRSRIDSSRLGVVGHSMGGGGTLEAARSRPSLQAAIPLTGWNLTKTWSTVRVPTLVVGAQADTVAPVASHSIPFYNSLPSSLDKAYLELRGASHFAPNSSNTTIAKYTLSWLKRFIDNDTRYEQFLCPIPSTSLSISDYRGNCPHNG [TEP182] ? Condition not met

Thanks! And ADNPYQRGPEPTTSSVAATRGTFATAEVSVSKGNGFGGGKIYYPTDTSKGTFGAIAVVPGYTATWAAEGAWMGPWLASFGFVVIGIDTNSRTDYDTARGTQLLAALDYLTQKSSVRSRVDVKRLSVMGHSMGGGGAMYAALHRPSLWAAVGNAPFSPSQNLKSDRVPTLLLAGQKDTTVTPSSVVGLYNGIPAATEKGYLELTGAAHNFPTRSNSVMMRKVVPWLKIFVDHDTRYGQFLCPSLKDTTGITSYRSTCPLTTAGQ [ESM078] ? Condition not met

Thanks! And CVTPAPPPAPDVATVTVGAGNGFGGGTIYYPQGATGRLPVVAASPGFTENQNAVGWYGPLLAREGNIVITIDTNSPFDSPTSRADQLLAAIDYVVNRSSVASIADGSRTAVMGHSMGGGGSLEAALKRPGLKAIIPLAPWNTTTNFSGVRVPTLIVGCQNDAIAPVGSHAEPFYQSIPATTPKAYLEIAGGDHFCTNSENPTIANYVVAWTDRFLQGDTSASSRLCPPPPAGGSISEYRANCPY [ESM050] ? Condition met

Thanks! And VQIGPNPTKSSLEASRGPFSTSQFTVSRPSGYGAGTVYYPTNAGAKVGAIAIVPGFLSYQSSINWWGPRLASHGFVVITIDTYTTGDQPDSRSRQQLAALDQVIALGNTSSSPIYGKVDGSRTGVMGWSMGGGGSLISAKNRPSIKAAAPQAPWNTSTNFSSVTVPTLIFACQSDIVAPVISHAIPFYNSMTRNPKQYLEKTLGDHFCFNNANATVGLKGVAWMKRFVDGDTRYTSFACSNPNAFGFSDFRTARCS [ESM045] ? Condition met

Thanks! And EEPASGYQRGPAPTTSSIESSRGPFSTSQVSISGLSANGFGGADVYYPTDTSQGTFGAVAISPGYTARKSSMAWLASRLASQGFVVINIDTNTTSDQPASRGRQLLAALDQVTKDSRVANRIDPTRLAVVGHSMGGGGALEASRSRPSLQAAIPLTPWNTTKSFSGNQVPTLVVGAERDTVASVRSHAEPFYRSLPSAPGKAYLELAGASHFAPNTSNTTIAKHSIAWLKLFVDNDERYRQFVCPGPTSDRAVSDYQNTCSSFTP [DP053] ? Condition not met

Thanks! And AENPYERGPAPTTASIEALRGPFATAETTVSSLSVRGFGGGTIHYPTSTAEGTFGAVAVAPGYTASQSSLSWLGPRLASQGFVVFVIDTNSRYDQPASRGDQLLAALDYLTTSSSVRGRIDASRLGVMGHSMGGGGALEATKDRPSLQASIPLTPWNTTKTWSTVRTPTLVVGAEDDSVAPVRTHAEPFYEGLPSTLDKAYLELAGASHFAPNSSNTTIAKYSIAWLKRFVDDDTRYEQFLCPAPRGTAISEYRDTCPHP [TEP110] ? Condition not met

Thanks! And QSAEASPPHGPDPTEESITAPRGPFEIDQKTVSRASVRGFGGGTIYYPTDTSEGTFSAVAIAPGYTAGQESLAWLGPRLASQGFVVFTIDTLTRYDQPDSRSRQLLAALDHLTDDSDVADRVDPARRGVMGHSMGGGGSLQAALDDPDLKAAIPMTPWHTTKDFSGVRTPTLIIGAQNDTVAPVSQHAKPFYESLPDDPGKAYLELAGASHFAPNVDNTTIARYSIAWLKRFLDDDTRYEQFLCPPPPDPAISDHQSTCPY [TEP105] ? Condition met

* * *

assay: PET hydrolysis, aromatic products released after 48 h (umol product/mg enzyme); higher = more PET depolymerization activity; conditions: substrate: cryPow; 60 °C; pH 5.5
Could you please report measured PET hydrolysis for the items listed next?

Recorded PET hydrolysis for AGNPYQRGPDPTLASVAASRGTFATAQVSVPPGNGFNGGTIYYPTDTTQGTWGAVAIVPGYTALFANEEAWMGPWLASFGFVVIGIETNSRNDFDTARGTQLLAALDYLTQKSPVRDRVDSARLGVIGHSMGGGGVVYATEHRPSLKAAVALAPFSPSQDMSTDHVPTMVMAGQNDTVVTPSYLDGLYATMPASAQSDFVQLAGADHVAYTHPNTTEMRLLIPWLKIFLDDDTRYTQFLCPLKDSTGVSMYRAKCPYVPPGGPTTSPTPTTTPTPPDGGACSATYRTVNSWSGGYQGEITVTAGGAAIDGWTVRWSLGGGQTVTQVWNGTLSTSGSTASVANASYNGSLQASASTTFGFLANGTPSTPALTCSSP [ESM084] , please? < 3

Thanks! And ADNPYQRGPDPTVASVAATNGPFATAQLNVPSGNGFNGGTIYYPTDTSLGTWGAVAIVPGYTARFANEEAWMGPRLASFGFVVIGVETNSTTDWDTARGTQLLAALDYLTQKSSVRDRVDASRLAVIGHSMGGGGVVYAASQRPSLKAAIGLAPYAPSGNLSNVKVPMLIQGGQNDTVVTPSYLDGLYPTLPSSTPGAYVQYSGADHLFWTKANNIELRTQIPWLKIFLDNDTRYTQFMCPTLKDTASVAKYSAKCSLIPSAGSTTAPTTQPATSAPATTSPTTQPPSQPG [TEP083] ? < 3
